B1: Formin-binding protein 4, residues 593 to 636; numbered along this chain, Q8N3X1 (parent)
chain: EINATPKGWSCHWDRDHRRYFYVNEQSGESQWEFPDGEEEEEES

Variants of: B1
Experiment: abundance fitness (aPCA) (normalised: wild type 0, dead -1); higher = more abundant; growth selection in yeast, the domain comes from the species named
Settings: Homo sapiens
Each entry gets n if its abundance fitness stays under -0.2, and y if its abundance fitness is -0.2 or above.

* D36V | y
* N3M | y
* N24K | n
* H17M | n
* D16F | n
* E33L | n
* F21G | n
* E1R | y
* W13F | y
* G37V | y
* D16W | n

Reference source for all entries: the Human Domainome abundance scans (Beltran et al. 2025)
